Experiment: NCI Yeast Anticancer Drug Screen. Data for the cln2 rad14 strain (AID 165);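 further: 0% = growth equal to vehicle treated cultures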
Conditions: S. cerevisiae cln2 rad14 strain, at 50.0 µM (retest, dose inferred, filed as 5.0)
The panel holds about 79,000 compounds, 15% with a hit somewhere; the sample as a whole holds those more often. The source made the active and inactive calls. No stated cut-off is given here; in the data, active means growth inhibition above about 70%; inactive means the rest.
// allowed return values: true (1) = active, false (0) = inactive

// known answers, use as guide
>  <Molecule>
COC(=O)/C=C(/CC(=O)OC)C(=O)OC

>  <Group>
false (0)

$$$$
>  <Molecule>
CCc1nc2ccc(NCCN(C)C)c3c(=O)c4ccccc4n1c23

>  <Group>
false (0)

$$$$
>  <Molecule>
CN(C)C=NC1CCC(C(C)(C)C)CC1 (stereo not given)

>  <Group>
true (1)

$$$$
>  <Molecule>
CC(=O)OC1CC2C(C)(C)C(=O)C=C[C@]2(C)C2CCC3(C)C(=CCC3[C@H](CO)C[C@H](O)C(=O)C(C)(C)O)[C@]12C (stereo not given in full)

>  <Group>
false (0)

$$$$

Query: Please share the test call associated with "Cc1ccc2nc(-c3cccc([N+](=O)[O-])c3)oc(=O)c2c1" .
Result: false (0)

Query: Assay result, entry "Cc1cc(NCCCCCCCCNc2cc(C)nc3cc(N)ccc23)c2ccc(N)cc2n1" — outcome?
Result: true (1)

Query: Please state the recorded outcome for this molecule: "CC(/C=C/c1ccccc1)=N\NC(N)=S"
Result: false (0)

Query: Test call for this molecule, please: "CC[n+]1oc(C(=O)c2ccc(Cl)cc2)c(-c2ccccc2)c1-c1ccccc1.[Cl][Fe]([Cl])([Cl])[Cl]"
Result: false (0)

Query: In this assay, the call recorded for "CSc1nnc(SC)nn1" was what?
Result: true (1)

Query: Please let me know the test result on file for c1ccc2c(OCC3CO3)cccc2c1 (stereo not given) .
Result: true (1)

Query: What did this assay record as the result for COc1nc2c(c(=O)n1C)N=C(c1ccccc1)[C@H](C(CC(=O)c1ccccc1)c1ccccc1)C(c1ccccc1)N2 (stereo not given in full) ?
Result: false (0)

Query: Kindly provide the recorded test outcome for the following molecule: O=C(O)C1CC(c2ccccc2)=NN1c1ccccc1 (stereo not given)
Result: false (0)

Query: # fetch the recorded call for "O=C(COC(=O)c1ccccc1)c1ccc(Br)cc1" here
Result: true (1)

Query: Any idea what this test logged for "O=[N+]([O-])c1ccc(N/N=C/Cc2ccccc2)c([N+](=O)[O-])c1" ?
Result: false (0)

Query: Would you mind telling me which call this test gave COC(=O)CC1(O)C(/C=C/c2ccccc2)C(C(=O)OC)C(=O)C(C(=O)OC)C1C(=O)OC (stereo not given) ?
Result: false (0)

====

Assay: NCI Yeast Anticancer Drug Screen. Data for the rad50 strain (AID 155);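 further: 0% = growth of vehicle-only cultures of the same strain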
Details: S. cerevisiae rad50 strain growth inhibition; at 3.7 µM; hits give high values
Compounds without any hit were thinned out: in the full panel of roughly 79,000, 15% have a hit.
growth inhibition: recorded values
Write the answer as a number in %, unit excluded.

Use the examples below as a reference point.
>  <Smiles repr>
Cc1cc(C)c(NC(=S)NC(=O)c2ccccc2)cc1C

>  <Measurement>
-52

$$$$
>  <Smiles repr>
Cc1ccc(Sc2ccccc2N)cc1

>  <Measurement>
-3

$$$$

Below: the item to evaluate.
Input "COc1cc(/C=C2\CCC/C(=C\c3ccc(O)c(OC)c3)C2=O)ccc1O" . Output growth inhibition: -9
